Target: PriA (E. coli) (Escherichia coli K12, UniProt P17888 1-732)
Sequence (P17888 whole entry): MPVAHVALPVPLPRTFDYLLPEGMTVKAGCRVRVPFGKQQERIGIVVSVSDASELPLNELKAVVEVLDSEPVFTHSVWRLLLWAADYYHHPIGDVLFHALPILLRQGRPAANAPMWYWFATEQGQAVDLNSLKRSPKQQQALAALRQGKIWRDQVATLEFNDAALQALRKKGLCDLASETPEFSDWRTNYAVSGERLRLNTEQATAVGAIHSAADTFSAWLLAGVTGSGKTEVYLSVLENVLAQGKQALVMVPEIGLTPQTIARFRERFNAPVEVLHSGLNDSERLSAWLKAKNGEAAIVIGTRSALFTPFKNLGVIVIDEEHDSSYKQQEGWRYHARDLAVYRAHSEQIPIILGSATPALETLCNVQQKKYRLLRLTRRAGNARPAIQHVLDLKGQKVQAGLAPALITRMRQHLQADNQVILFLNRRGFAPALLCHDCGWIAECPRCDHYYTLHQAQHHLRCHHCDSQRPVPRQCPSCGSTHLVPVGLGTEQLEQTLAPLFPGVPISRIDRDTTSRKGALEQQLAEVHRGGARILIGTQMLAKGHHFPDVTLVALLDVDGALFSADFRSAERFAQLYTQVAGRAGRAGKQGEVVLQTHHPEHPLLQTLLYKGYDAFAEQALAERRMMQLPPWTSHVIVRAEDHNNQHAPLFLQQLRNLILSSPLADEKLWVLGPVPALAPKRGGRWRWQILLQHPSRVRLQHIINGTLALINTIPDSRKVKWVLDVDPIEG
Assay: fluorescence anisotropy; 1 mM Mg2+, no ATP listed; apparent Kd (half-bound); 20 mM Tris-HCl pH 8, 15% glycerol, 50 mM NaCl, 1 mM MgCl2, 1 mM 2-mercaptoethanol, 0.1 g/L BSA, 1 nM DNA, 25 C
Settings: protein: recombinant; label: 3' fluorescein; single strand
pKd: −log10 of the molar value.

{"columns": ["Binder", "pKd"],
 "data": [
  ["AAGCACAATTACCCACGC (ssDNA) [18-base mixed-sequence ssDNA]", 6.89]
]}

Each recorded value in this set is attributed to paper PMC4504706.
